Biological target: human Cav3.2 channel (Homo sapiens)
Construct: expressed in transfected cells
Assay: Electrophysiological evaluation, automated whole-cell patch clamp of Cav3.2 channel current (Pharmacological Test 2)
Format: cell-based
Details: 3 μM test compound, holding potential −100 mV; read-out: Cav3.2 channel current inhibition rate in test compound of 3 μM (holding potential of −100 mV) (%)
assay-endpoint: inhibition at 3 µM (%)
The reply should contain only the number, in %.

Record summary for C[C@@H](NC(=O)C1CC1c1nc2ccccc2[nH]1)c1cnc(OCC(F)(F)F)cn1 (some centres unmarked) [RQ-00311651, reference compound] : reported inhibition at 3 µM = 14

Record summary for CC(NC(=O)C1CC1c1nc2ccccc2[nH]1)C(=O)Nc1ccc(C(F)(F)F)cc1 (single isomer, unassigned) : reported inhibition at 3 µM = 38

Record summary for CC(NC(=O)C1CC1c1nc2ccccc2[nH]1)C(=O)Nc1ccc(C(F)(F)F)nc1 (single isomer, unassigned) : reported inhibition at 3 µM = 32

Record summary for O=C(CNC(=O)[C@@H]1C[C@H]1c1nc2ccccc2[nH]1)Nc1ccc(C(F)(F)F)cc1 (relative stereo) : reported inhibition at 3 µM = 32

Record summary for O=C(NC1(C(=O)Nc2ccc(C(F)(F)F)cc2)CC1)[C@@H]1C[C@H]1c1nc2ccccc2[nH]1 (relative stereo) : reported inhibition at 3 µM = 41

====

Please provide measured IC50 for the entries that follow.
Target: human Cav3.2 channel (Homo sapiens, UniProt O95180)
Construct: expressed in transfected cells
Sequence (O95180 whole entry): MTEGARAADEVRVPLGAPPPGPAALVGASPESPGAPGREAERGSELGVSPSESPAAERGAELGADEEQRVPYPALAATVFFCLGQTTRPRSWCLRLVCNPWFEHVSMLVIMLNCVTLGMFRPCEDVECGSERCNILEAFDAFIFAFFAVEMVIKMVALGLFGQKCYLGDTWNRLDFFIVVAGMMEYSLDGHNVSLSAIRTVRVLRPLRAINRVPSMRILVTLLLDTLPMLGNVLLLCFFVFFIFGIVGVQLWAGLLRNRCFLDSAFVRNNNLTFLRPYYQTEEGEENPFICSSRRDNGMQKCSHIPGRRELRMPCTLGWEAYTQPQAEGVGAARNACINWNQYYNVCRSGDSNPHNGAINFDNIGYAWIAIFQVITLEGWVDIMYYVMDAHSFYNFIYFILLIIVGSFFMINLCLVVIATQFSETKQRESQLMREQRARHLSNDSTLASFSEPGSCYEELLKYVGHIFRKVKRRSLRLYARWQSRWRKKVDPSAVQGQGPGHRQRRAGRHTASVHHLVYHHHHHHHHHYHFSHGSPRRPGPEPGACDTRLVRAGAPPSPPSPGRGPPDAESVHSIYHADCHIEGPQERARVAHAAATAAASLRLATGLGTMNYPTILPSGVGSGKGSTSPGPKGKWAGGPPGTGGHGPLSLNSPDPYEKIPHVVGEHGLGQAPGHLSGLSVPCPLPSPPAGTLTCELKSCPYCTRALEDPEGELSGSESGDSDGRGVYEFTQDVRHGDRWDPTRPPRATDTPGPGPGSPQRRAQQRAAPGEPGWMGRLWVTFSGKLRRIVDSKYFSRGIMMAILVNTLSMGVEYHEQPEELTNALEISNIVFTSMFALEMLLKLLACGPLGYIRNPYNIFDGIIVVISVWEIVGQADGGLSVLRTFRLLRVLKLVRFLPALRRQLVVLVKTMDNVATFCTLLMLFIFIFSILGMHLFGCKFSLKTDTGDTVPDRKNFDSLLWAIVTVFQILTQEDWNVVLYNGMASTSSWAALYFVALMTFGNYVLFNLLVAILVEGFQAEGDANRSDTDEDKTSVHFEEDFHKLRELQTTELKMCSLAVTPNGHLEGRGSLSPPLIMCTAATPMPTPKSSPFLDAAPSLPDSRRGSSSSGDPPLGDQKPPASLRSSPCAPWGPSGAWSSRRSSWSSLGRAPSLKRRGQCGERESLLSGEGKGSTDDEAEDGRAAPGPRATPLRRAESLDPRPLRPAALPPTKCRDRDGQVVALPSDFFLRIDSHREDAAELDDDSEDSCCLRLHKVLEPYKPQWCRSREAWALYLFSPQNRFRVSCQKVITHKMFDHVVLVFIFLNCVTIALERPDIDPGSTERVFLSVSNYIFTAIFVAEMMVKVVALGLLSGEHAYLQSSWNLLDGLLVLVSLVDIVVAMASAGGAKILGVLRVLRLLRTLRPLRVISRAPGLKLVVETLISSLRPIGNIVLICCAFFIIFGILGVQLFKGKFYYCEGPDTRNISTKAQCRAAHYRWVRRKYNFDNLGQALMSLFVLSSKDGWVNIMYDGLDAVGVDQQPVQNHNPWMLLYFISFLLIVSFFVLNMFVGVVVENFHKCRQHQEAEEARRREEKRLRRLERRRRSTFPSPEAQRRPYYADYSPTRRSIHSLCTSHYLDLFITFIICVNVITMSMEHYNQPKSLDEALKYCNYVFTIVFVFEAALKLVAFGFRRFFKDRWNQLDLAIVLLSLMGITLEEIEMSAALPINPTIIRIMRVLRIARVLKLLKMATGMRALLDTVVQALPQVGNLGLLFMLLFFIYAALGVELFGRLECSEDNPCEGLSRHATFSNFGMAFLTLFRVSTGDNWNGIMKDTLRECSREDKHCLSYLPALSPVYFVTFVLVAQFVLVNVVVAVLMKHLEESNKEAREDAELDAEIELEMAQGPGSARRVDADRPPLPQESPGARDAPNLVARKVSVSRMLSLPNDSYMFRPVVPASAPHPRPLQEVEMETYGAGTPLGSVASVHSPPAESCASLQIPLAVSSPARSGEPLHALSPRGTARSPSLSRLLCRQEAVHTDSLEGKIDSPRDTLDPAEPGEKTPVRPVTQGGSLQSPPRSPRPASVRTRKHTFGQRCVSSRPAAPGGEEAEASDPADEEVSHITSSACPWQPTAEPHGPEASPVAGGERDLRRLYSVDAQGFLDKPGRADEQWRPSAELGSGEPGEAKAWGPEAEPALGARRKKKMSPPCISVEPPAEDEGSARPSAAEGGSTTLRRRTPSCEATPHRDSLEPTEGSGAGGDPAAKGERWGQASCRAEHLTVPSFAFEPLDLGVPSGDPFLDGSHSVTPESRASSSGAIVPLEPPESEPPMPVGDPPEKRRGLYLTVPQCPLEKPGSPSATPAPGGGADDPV
Assay: Intracellular calcium concentration measurement in human Cav3.2 channel expressing stable cell line (Pharmacological Test 1)
Assay type: cell-based
Details: HEK293 cells stably expressing human Cav3.2, Fluo-4 AM fluorescence, KCl stimulation; read-out: Cav3.2 channel inhibitory action

Record summary for `O=C(NC1(C(=O)Nc2ccc(F)c(C(F)(F)F)c2)CC1)[C@H]1C[C@@H]1c1nc2cc(Cl)ccc2[nH]1` : reported IC50 = ≤ 100 nM

Record summary for CCCc1ccc(NC(=O)C(C)NC(=O)C2CC2c2nc3ccccc3[nH]2)cc1 (single isomer, unassigned) [Example 1A] : reported IC50 = 100 to 1000 nM

Record summary for `O=C(NC1(C(=O)Nc2ccccc2C(F)(F)F)CC1)[C@H]1C[C@@H]1c1nc2ccccc2[nH]1` : reported IC50 = 1000 to 10000 nM

Record summary for CC(NC(=O)C1CC1c1nc2ccccc2[nH]1)C(=O)NC1CCN(C(=O)OC(C)(C)C)CC1 (centres unmarked) : reported IC50 = 1000 to 10000 nM

Record summary for `O=C(NC1(C(=O)Nc2cccc(C(F)(F)F)c2F)CC1)[C@H]1C[C@@H]1c1nc2ccccc2[nH]1` : reported IC50 = 100 to 1000 nM

Record summary for CC(NC(=O)C1CC1c1nc2ccccc2[nH]1)C(=O)Nc1cnccn1 (centres unmarked) : reported IC50 = > 10000 nM

Record summary for CC(NC(=O)C1CC1c1nc2ccccc2[nH]1)C(=O)Nc1cnc(Br)cn1 (single isomer, unassigned) [Example 18A] : reported IC50 = 100 to 1000 nM

Record summary for CC(NC(=O)C1CC1c1nc2ccccc2[nH]1)C(=O)Nc1ccc(C(F)(F)F)nc1 (single isomer, unassigned) [Example 5B] : reported IC50 = 100 to 1000 nM

Record summary for O=C(NC1CC(=O)N(c2ccc(C(F)(F)F)nc2)C1)[C@H]1C[C@@H]1c1nc2ccccc2[nH]1 (single isomer, unassigned) [Example 33A] : reported IC50 = 1000 to 10000 nM

Record summary for CC(NC(=O)C1CC1c1nc2ccccc2[nH]1)C(=O)N(C)c1ccc(C(F)(F)F)cc1 (single isomer, unassigned) [Example 8B] : reported IC50 = 1000 to 10000 nM

Record summary for `O=C(NC1(C(=O)Nc2cccc(OC(F)(F)F)c2)CC1)[C@H]1C[C@@H]1c1nc2ccccc2[nH]1` : reported IC50 = ≤ 100 nM

Record summary for CC(NC(=O)C1CC1c1nc2ccccc2[nH]1)C(=O)NCc1ccc(S(C)(=O)=O)cc1 (centres unmarked) : reported IC50 = > 10000 nM

Record summary for O=C(NC1CCN(c2ccc(C(F)(F)F)cc2)C1=O)[C@H]1C[C@@H]1c1nc2ccccc2[nH]1 (single isomer, unassigned) [Example 23A] : reported IC50 = 1000 to 10000 nM

Record summary for `O=C(NC1(C(=O)Nc2ccc(OC(F)(F)F)cc2)CC1)[C@H]1C[C@@H]1c1nc2ccccc2[nH]1` : reported IC50 = ≤ 100 nM

====

Biological target: human Cav3.2 channel (Homo sapiens, UniProt O95180)
Construct: expressed in transfected cells
Assay: Electrophysiological evaluation, automated whole-cell patch clamp of Cav3.2 channel current (Pharmacological Test 2)
Type: cell-based
Details: 0.3 μM test compound, holding potential −80 mV, depolarization to −20 mV; read-out: Cav3.2 channel current inhibition rate in test compound of 0.3 μM (holding potential of −80 mV) (%)
1 means recorded inhibition at 0.3 µM is 80% or above; 0 means it is below 80%.

Kindly determine if inhibition at 0.3 µM recorded for CC(NC(=O)C1CC1c1nc2ccccc2[nH]1)C(=O)Nc1ccc(C(F)(F)F)cc1 (single isomer, unassigned) is above or exactly 80%.
0

Kindly determine if inhibition at 0.3 µM recorded for CC(NC(=O)C1CC1c1nc2ccccc2[nH]1)C(=O)Nc1cnc(Br)cn1 (single isomer, unassigned) [Example 18A] is above or exactly 80%.
0

Kindly determine if inhibition at 0.3 µM recorded for `O=C(NC1(C(=O)Nc2ccc(C(F)(F)F)cc2)CC1)[C@H]1C[C@@H]1c1nc2ccccc2[nH]1` is above or exactly 80%.
1

Kindly determine if inhibition at 0.3 µM recorded for CC(NC(=O)C1CC1c1nc2ccccc2[nH]1)C(=O)Nc1ccc(C(C)(C)C)cc1 (single isomer, unassigned) is above or exactly 80%.
0

Kindly determine if inhibition at 0.3 µM recorded for `O=C(NC1(C(=O)Nc2cccc(C(F)(F)F)c2)CC1)[C@H]1C[C@@H]1c1nc2ccccc2[nH]1` is above or exactly 80%.
1

Kindly determine if inhibition at 0.3 µM recorded for CCCc1ccc(NC(=O)C(C)NC(=O)C2CC2c2nc3ccccc3[nH]2)cc1 (single isomer, unassigned) is above or exactly 80%.
1

Kindly determine if inhibition at 0.3 µM recorded for C[C@@H](NC(=O)C1CC1c1nc2ccccc2[nH]1)c1cnc(OCC(F)(F)F)cn1 (stereo partly shown) [RQ-00311651, reference compound] is above or exactly 80%.
0
